Reported pKd is given for each of the following binders.
biological target: T1, human programmed cell death protein 1 (hPD-1) C93S (aa 24-167) (Homo sapiens, UniProt Q15116, C93S); assay: SPR; Carterra LSA; Fab from the ammonium sulfate precipitate of the culture supernatant immobilised on a NiHC200M chip; hPD-1 (1-1024 nM) or mPD-1-Fc (4-1024 nM) as analyte, fourfold dilution series, no regeneration; HBS-EP pH 7.4, 25 °C; medians over the spots of a construct, KD = koff/kon; settings: one partner purified
T1 construct: made as a fusion with a TEV site and human Fc; the Fc was cut off with TEV protease; source: Expi293F, purified (Protein A, TEV cleavage of Fc, SEC; monomer fractions); not shown: Fc (human), C-terminal, cleaved
T1 sequence (Q15116 24-167 C93S): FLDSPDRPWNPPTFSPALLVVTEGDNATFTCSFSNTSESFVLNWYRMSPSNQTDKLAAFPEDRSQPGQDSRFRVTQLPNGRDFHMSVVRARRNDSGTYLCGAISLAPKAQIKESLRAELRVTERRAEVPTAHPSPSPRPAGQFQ
Formally, pKd is defined as -log10 of the concentration c, with c in mol/L.

binder="toripalimab Fab H.G57A (Fab, V domains shown, heavy chain of Sm3 with this change; numbers count from the chain's first residue; as the light chain of Sm3; source: Brevibacillus, culture supernatant (ammonium sulfate precipitate); not shown: 6xHis, C-terminal, kept; 6xHN, C-terminal, kept) VH: QGQLVQSGAEVKKPGASVKVSCKASGYTFTDYEMHWVRQAPIHGLEWIGVIESETGATAYNQKFKGRVTITADKSTSTAYMELSSLRSEDTAVYYCAREGITTVATTYYWYFDVWGQGTTVTVSS VL: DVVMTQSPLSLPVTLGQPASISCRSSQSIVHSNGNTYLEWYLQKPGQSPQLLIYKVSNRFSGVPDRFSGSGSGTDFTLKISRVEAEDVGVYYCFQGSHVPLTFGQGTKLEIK" measurement_kind=pKd meas_value=9.22

Turning now to a further binder:
Request: Return reported pKd. Input binder: toripalimab Fab L.S25Y (Fab, V domains shown, as the heavy chain of Sm3; light chain of Sm3 with this change; numbers count from the chain's first residue; source: Brevibacillus, culture supernatant (ammonium sulfate precipitate); not shown: 6xHis, C-terminal, kept; 6xHN, C-terminal, kept) VH: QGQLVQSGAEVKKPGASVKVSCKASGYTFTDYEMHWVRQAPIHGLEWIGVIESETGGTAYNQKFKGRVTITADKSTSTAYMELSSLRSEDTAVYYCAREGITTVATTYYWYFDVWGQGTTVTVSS VL: DVVMTQSPLSLPVTLGQPASISCRYSQSIVHSNGNTYLEWYLQKPGQSPQLLIYKVSNRFSGVPDRFSGSGSGTDFTLKISRVEAEDVGVYYCFQGSHVPLTFGQGTKLEIK
Result: 8.71
